From: patent US20200207837A1

Would you mind telling me the reported pIC50 of each entry?
molecular target: activated KLK1 (human KLK1, C-terminal His tag, pro-KLK1 activated with thermolysin) (UniProt P06870 25-262); assay: peptide substrate degradation inhibition
Sequence (P06870 25-262): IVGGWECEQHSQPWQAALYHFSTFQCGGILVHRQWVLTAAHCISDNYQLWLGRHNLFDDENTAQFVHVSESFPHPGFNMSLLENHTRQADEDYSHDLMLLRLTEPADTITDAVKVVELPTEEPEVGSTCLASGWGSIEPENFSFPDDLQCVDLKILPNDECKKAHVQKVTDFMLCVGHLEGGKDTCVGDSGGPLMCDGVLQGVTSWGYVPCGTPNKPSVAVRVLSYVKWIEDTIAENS
pIC50: −log10 of the molar value.

Challenge: Field request: pIC50 | item: KLK4/KLK8 inhibitory peptide K41024 (designed binder) GSGMKETAAAKFERQHMDSPDLGTDDDDKAMADIGSANSDPQFGLFSKYRTPNCTRYVVNGCSRVYDPVCGSDMSTYANECTLCMKIREGGHNIKIIRNGPCGASAAA
Response given: < 6.00

Challenge: Then what about the binder KLK1 inhibitory peptide K10061 (designed binder) GSGMKETAAAKFERQHMDSPDLGTDDDDKAMADIGSANSDPQFGLFSKYRTPNCARNNIVDCFYYYKPVCGSDMSTYANECTLCMKIREGGHNIKIIRNGPCGASAAA ?
Response given: 7.89

Challenge: What do you have for KLK1 inhibitory peptide K10062 (designed binder) GSGMKETAAAKFERQHMDSPDLGTDDDDKAMADIGSANSDPQFGLFSKYRTPNCDIYQVDRCWWASQPVCGSDMSTYANECTLCMKIREGGHNIKIIRNGPCGASAAA ?
Response given: 7.92

Challenge: Another binder to look at: KLK4/KLK8 inhibitory peptide K41043 (designed binder) GSGMKETAAAKFERQHMDSPDLGTDDDDKAMADIGSANSDPQFGLFSKYRTPNCRRYSIHGCNRMYAPVCGSDMSTYANECTLCMKIREGGHNIKIIRNGPCGASAAA
Response given: < 6.00

Challenge: Same for KLK4 inhibitory peptide K40001 (designed binder) GSGMKETAAAKFERQHMDSPDLGTDDDDKAMADIGSANSDPQFGLFSKYRTPNCRKYEYGVCQRTYLPVCGSDMSTYANECTLCMKIREGGHNIKIIRNGPCGASAAA
Response given: < 6.00

Challenge: What do you have for KLK4/KLK8 inhibitory peptide K41021 (designed binder) GSGMKETAAAKFERQHMDSPDLGTDDDDKAMADIGSANSDPQFGLFSKYRTPNCRKHTLDGCARIYDPVCGSDMSTYANECTLCMKIREGGHNIKIIRNGPCGASAAA ?
Response given: < 6.00

Challenge: Item: KLK4 inhibitory peptide K40005 (designed binder) GSGMKETAAAKFERQHMDSPDLGTDDDDKAMADIGSANSDPQFGLFSKYRTPNCSQQAMGACQRIYKPVCGSDMSTYANECTLCMKIREGGHNIKIIRNGPCGASAAA
Response given: < 6.00

Challenge: Let us now turn to KLK4/KLK8 inhibitory peptide K41045 (designed binder) GSGMKETAAAKFERQHMDSPDLGTDDDDKAMADIGSANSDPQFGLFSKYRTPNCRKQYWVGCNRMYAPVCGSDMSTYANECTLCMKIREGGHNIKIIRNGPCGASAAA
Response given: < 6.00

Challenge: Lookup KLK4 inhibitory peptide K40003 (designed binder) GSGMKETAAAKFERQHMDSPDLGTDDDDKAMADIGSANSDPQFGLFSKYRTPNCELYVEDVCQRIFKPVCGSDMSTYANECTLCMKIREGGHNIKIIRNGPCGASAAA
Response given: < 6.00

Challenge: Moving on to KLK1 inhibitory peptide K10071 (designed binder) GSGMKETAAAKFERQHMDSPDLGTDDDDKAMADIGSANSDPQFGLFSKYRTPNCDQNKYRDCHYYYKPVCGSDMSTYANECTLCMKIREGGHNIKIIRNGPCGASAAA
Response given: 7.70

Challenge: KLK4/KLK8 inhibitory peptide K41041 (designed binder) GSGMKETAAAKFERQHMDSPDLGTDDDDKAMADIGSANSDPQFGLFSKYRTPNCQRYSQWGCTRQLDPVCGSDMSTYANECTLCMKIREGGHNIKIIRNGPCGASAAA , same question.
Response given: < 6.00

Challenge: How about this binder: KLK4/KLK8 inhibitory peptide K41042 (designed binder) GSGMKETAAAKFERQHMDSPDLGTDDDDKAMADIGSANSDPQFGLFSKYRTPNCSRYRREGCNRMYNPVCGSDMSTYANECTLCMKIREGGHNIKIIRNGPCGASAAA
Response given: < 6.00

Challenge: Also KLK4/KLK8 inhibitory peptide K41046 (designed binder) GSGMKETAAAKFERQHMDSPDLGTDDDDKAMADIGSANSDPQFGLFSKYRTPNCGRYYRGWCFKSLEPVCGSDMSTYANECTLCMKIREGGHNIKIIRNGPCGASAAA , if possible.
Response given: < 6.00

Challenge: Then KLK1 inhibitory peptide K10066 (designed binder) GSGMKETAAAKFERQHMDSPDLGTDDDDKAMADIGSANSDPQFGLFSKYRTPNCSVALRDICWWTSEPVCGSDMSTYANECTLCMKIREGGHNIKIIRNGPCGASAAA ?
Response given: 7.92

Challenge: What do we get for KLK4/KLK8 inhibitory peptide K41026 (designed binder) GSGMKETAAAKFERQHMDSPDLGTDDDDKAMADIGSANSDPQFGLFSKYRTPNCQRYKMRGCNRMYDPVCGSDMSTYANECTLCMKIREGGHNIKIIRNGPCGASAAA ?
Response given: < 6.00

Challenge: Same thing, different binder: KLK4 inhibitory peptide K40004 (designed binder) GSGMKETAAAKFERQHMDSPDLGTDDDDKAMADIGSANSDPQFGLFSKYRTPNCEHAQLGVCQKLYQPVCGSDMSTYANECTLCMKIREGGHNIKIIRNGPCGASAAA
Response given: < 6.00

Challenge: Consider next the binder KLK4/KLK8 inhibitory peptide K41047 (designed binder) GSGMKETAAAKFERQHMDSPDLGTDDDDKAMADIGSANSDPQFGLFSKYRTPNCMRFHKDGCARIYDPVCGSDMSTYANECTLCMKIREGGHNIKIIRNGPCGASAAA in the same way.
Response given: < 6.00

Challenge: Another binder: KLK4/KLK8 inhibitory peptide K41025 (designed binder) GSGMKETAAAKFERQHMDSPDLGTDDDDKAMADIGSANSDPQFGLFSKYRTPNCSRYKSGGCTRIFDPVCGSDMSTYANECTLCMKIREGGHNIKIIRNGPCGASAAA
Response given: < 6.00
